Here we list compounds with their recorded pIC50 when tested on NAD-dependent protein deacylase sirtuin-5, mitochondrial (Homo sapiens).
Sequence (Q9NXA8 whole entry): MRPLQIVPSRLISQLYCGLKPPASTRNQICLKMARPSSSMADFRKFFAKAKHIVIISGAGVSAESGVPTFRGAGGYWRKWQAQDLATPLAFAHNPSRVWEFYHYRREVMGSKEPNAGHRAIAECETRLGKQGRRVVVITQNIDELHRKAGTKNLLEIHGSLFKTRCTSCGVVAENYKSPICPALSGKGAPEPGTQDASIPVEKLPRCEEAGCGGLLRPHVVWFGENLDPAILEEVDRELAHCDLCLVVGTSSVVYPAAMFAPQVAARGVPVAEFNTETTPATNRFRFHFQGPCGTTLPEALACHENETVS
pIC50: −log10 of the molar value.

- SMILES: "N#C/C(=C\\c1ccc(-c2cc(Cl)ccc2Cl)o1)C(=O)Nc1cccc2ncccc12"
  SYSTEM_TESTED: "NAD-dependent protein deacylase sirtuin-5, mitochondrial (Homo sapiens)"
  pIC50: "< 4.00"
- SMILES: "O=C1CCc2c(ccc3ccccc23)O1"
  SYSTEM_TESTED: "NAD-dependent protein deacylase sirtuin-5, mitochondrial (Homo sapiens)"
  pIC50: "< 4.00"
